Data provenance: patent US20210252150A1

# SYSTEM_UNDER_TEST: HA of A/Hong Kong/1/1968 (H3N2) (influenza A virus (H3N2), UniProt Q91MA7 17-530)
Listed here are binders together with their documented EC50.
Answer in µg/mL, number only, no unit symbol.

Answered examples (3):
BINDER	EC50 [µg/mL]
rFluA-20 heavy chain mutant T96A (antibody, V domains shown) VH: QVQLQESGPGLVKPSETLSLTCSVSGVSVTSDIYYWTWIRQPPGKGLEWIGYIFYNGDTNYNPSLKSRVTMSIDTSKNEFSLRLTSVTAADTAVYFCARGAEDLGYCSSGSCPNHWGQGTLVTVSS VL: DIQMTQSPSSLSASIGDRVTITCRPSQNIRSFLNWFQHKPGKAPKLLIYAASNLQSGVPSRFSGSGSGTEFTLTIRSLQPEDFATYYCQQSYNTPPTFGQGTKVEIK	0.1
rFluA-20 heavy chain mutant Y34A (antibody, V domains shown) VH: QVQLQESGPGLVKPSETLSLTCSVSGVSVTSDIAYWTWIRQPPGKGLEWIGYIFYNGDTNYNPSLKSRVTMSIDTSKNEFSLRLTSVTAADTAVYFCARGTEDLGYCSSGSCPNHWGQGTLVTVSS VL: DIQMTQSPSSLSASIGDRVTITCRPSQNIRSFLNWFQHKPGKAPKLLIYAASNLQSGVPSRFSGSGSGTEFTLTIRSLQPEDFATYYCQQSYNTPPTFGQGTKVEIK	0.07
rFluA-20 light chain mutant N53A (antibody, V domains shown) VH: QVQLQESGPGLVKPSETLSLTCSVSGVSVTSDIYYWTWIRQPPGKGLEWIGYIFYNGDTNYNPSLKSRVTMSIDTSKNEFSLRLTSVTAADTAVYFCARGTEDLGYCSSGSCPNHWGQGTLVTVSS VL: DIQMTQSPSSLSASIGDRVTITCRPSQNIRSFLNWFQHKPGKAPKLLIYAASALQSGVPSRFSGSGSGTEFTLTIRSLQPEDFATYYCQQSYNTPPTFGQGTKVEIK	0.06

Q: Name the reported EC50 value associated with the binder rFluA-20 heavy chain mutant E97A (antibody, V domains shown) VH: QVQLQESGPGLVKPSETLSLTCSVSGVSVTSDIYYWTWIRQPPGKGLEWIGYIFYNGDTNYNPSLKSRVTMSIDTSKNEFSLRLTSVTAADTAVYFCARGTADLGYCSSGSCPNHWGQGTLVTVSS VL: DIQMTQSPSSLSASIGDRVTITCRPSQNIRSFLNWFQHKPGKAPKLLIYAASNLQSGVPSRFSGSGSGTEFTLTIRSLQPEDFATYYCQQSYNTPPTFGQGTKVEIK
Ans: 0.07

Q: Name the reported EC50 value associated with the binder rFluA-20 heavy chain mutant Y100aA (antibody, V domains shown) VH: QVQLQESGPGLVKPSETLSLTCSVSGVSVTSDIYYWTWIRQPPGKGLEWIGYIFYNGDTNYNPSLKSRVTMSIDTSKNEFSLRLTSVTAADTAVYFCARGTEDLGACSSGSCPNHWGQGTLVTVSS VL: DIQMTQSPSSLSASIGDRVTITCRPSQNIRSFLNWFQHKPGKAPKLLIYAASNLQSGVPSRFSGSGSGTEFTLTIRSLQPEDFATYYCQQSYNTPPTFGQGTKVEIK
Ans: 0.07
